Biological target: mouse Tas2r144 (Mus musculus, UniProt Q7TQB8)
Construct: expressed in transfected cells; host or cells: HEK293T-Gα16gust44
Sequence (Q7TQB8 whole entry): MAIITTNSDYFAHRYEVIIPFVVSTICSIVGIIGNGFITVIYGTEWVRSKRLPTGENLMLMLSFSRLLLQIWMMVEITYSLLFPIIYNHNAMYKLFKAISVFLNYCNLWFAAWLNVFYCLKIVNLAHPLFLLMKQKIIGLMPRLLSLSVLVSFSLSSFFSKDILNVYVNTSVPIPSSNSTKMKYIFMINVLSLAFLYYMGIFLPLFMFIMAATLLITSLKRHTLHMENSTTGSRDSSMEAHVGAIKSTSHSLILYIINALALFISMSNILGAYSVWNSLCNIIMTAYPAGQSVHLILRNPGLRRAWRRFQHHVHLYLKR
Test: Calcium imaging assay (FLIPR), HEK293T-Gα16gust44 cells transfected with mouse Tas2r144
Assay type: cell-based
Settings: Time 118.781 s
property-measured: RLU (RLU)
# value in RLU; strip the unit string

{"columns": ["compound", "RLU / RLU"],
 "data": [
  ["C[C@H](CCC(=O)NCCS(=O)(=O)O)[C@H]1CC[C@H]2[C@@H]3[C@H](O)C[C@@H]4C[C@H](O)CC[C@]4(C)[C@H]3C[C@H](O)[C@]12C [Taurocholic Acid, taurocholic acid]", 466.916],
  ["C[C@H](CCC(=O)O)[C@H]1CC[C@H]2[C@@H]3[C@H](O)C[C@@H]4C[C@H](O)CC[C@]4(C)[C@H]3C[C@H](O)[C@]12C [Cholic Acid, cholic acid]", 408.859],
  ["C[C@H](CCC(=O)NCC(=O)O)[C@H]1CC[C@H]2[C@@H]3[C@H](O)C[C@@H]4C[C@H](O)CC[C@]4(C)[C@H]3C[C@H](O)[C@]12C [Glycocholic Acid, glycocholic acid]", 305.388]
]}

# context switch: different compound, same RLU
get_value(item= C[C@H](CCC(=O)NCCS(=O)(=O)O)[C@H]1CC[C@H]2[C@@H]3CC[C@@H]4C[C@H](O)CC[C@]4(C)[C@H]3CC[C@]12C [Taurolithocholic Acid, taurolithocholic acid] , readout=RLU) returns 385.665

This collection of values is drawn from paper PMC10247784.
